System: MDA-MB-435 melanoma
experiment-summary: NCI-60 one-dose screen, 48 h (100 = growth as untreated, 0 = no growth, -100 = all killed)
settings: 10 µM unless noted
About 83,000 compounds went through this panel and 20% of them were active in at least one assay; those are over-represented in the sample as a whole.
// growth lookup, one value per entry
Give the value in % but do not write % after it.

# item-smiles, study-system, property-name, u, recorded-number
records = [
    ("COc1cccc(OC)c1OC(=O)c1ccccc1", "MDA-MB-435 melanoma", "growth", "%", 97.5),
    ("O=c1nc(NO)[nH]c(=O)n1Cc1ccc(F)cc1", "MDA-MB-435 melanoma", "growth", "%", 103),
    ("Cc1nc2cc(Nc3nc(N4CCOCC4)nc(N4CCN(C)CC4)n3)ccc2n1Cc1ccccc1", "MDA-MB-435 melanoma", "growth", "%", 100),
    ("N#CCCN1CCN(CCC#N)C1=S", "MDA-MB-435 melanoma", "growth", "%", 106),
]

Here is another molecule to look at.
# lookup: growth of `COc1ccccc1CNCCCCCCCCCCCCN1C(=O)c2ccc3c4c(ccc(c24)C1=O)C(=O)N(CCCCCCCCCCCCNCc1ccccc1OC)C3=O`
58

* * *

// growth lookup, one value per entry
Test system: OVCAR-5 ovarian
experiment-summary: NCI-60 one-dose screen, 48 h (100 = growth as untreated, 0 = no growth, -100 = all killed)
settings: 10 µM unless noted
Compounds without any hit were thinned out: in the full panel of roughly 83,000, 20% have a hit.
Give the value in % but do not write % after it.

# molecule, u, growth
rows = [
    ("O=C1C(Cl)=C(NCCCN2CCOCC2)C(=O)c2ccccc21", "%", 111),
]

Please tell me: growth of `CCCCC/C=C\C/C=C/CCCCCCCCNC(=O)Nc1ccc([N+](=O)[O-])cc1` , system OVCAR-5 ovarian?
113

Please tell me: growth of `COc1cc(CNCCCN2C(=O)c3ccc4c5c(ccc(c35)C2=O)C(=O)N(CCCNCc2cc(OC)c(OC)c(OC)c2)C4=O)cc(OC)c1OC` , system OVCAR-5 ovarian?
-67.7

Please tell me: growth of `Cn1c2c(cc(S(=O)(=O)c3ccccc3)c1=O)CCc1c-2cnn1-c1ccccc1Cl` , system OVCAR-5 ovarian?
96.5

Please tell me: growth of `Cc1cc(O)cc2c1[C@H]1CC[C@]3(C)[C@@H](O)CC[C@H]3[C@@H]1C=C2` , system OVCAR-5 ovarian?
114

Please tell me: growth of `O=C1/C(=C/c2ccc([N+](=O)[O-])cc2)Oc2ccc(O)cc21` , system OVCAR-5 ovarian?
-9.84

Please tell me: growth of O=C(CC(O)c1ccccc1)Nc1ccccn1 (centres undefined) , system OVCAR-5 ovarian?
104

* * *

Tested on: MCF7 breast
experiment-summary: NCI-60 one-dose screen, 48 h (100 = growth as untreated, 0 = no growth, -100 = all killed)
settings: 10 µM unless noted
Method: Growth inhibition of the MCF7 human tumor cell line is measured as a screen for anti-cancer activity. Cells are grown in 96 well plates and exposed to the test compound for 48 hours. Compounds are tested at a single concentration, which is 10^-5 M for most compounds. The reported endpoint is percent growth (GI% or GIPRCNT), where numbers from 0 - 100% represent growth inhibition, and numbers from -100% - 0 represent cell death. For example, a value of 40 represents 60% growth inhibition. […]
This is part of a sample that, as a whole, favours compounds with a hit. Of some 83,000 tested, about 20% had one in any assay.
// growth lookup, one value per entry
Give the value in % but do not write % after it.

# compound, u, growth
measured = [
    ("CC(=O)Nc1ccc(S(=O)(=O)N/N=C\\c2ccc(Cl)c(Cl)c2)cc1", "%", 95.6),
]

Please tell me: growth of `CN(C)C(=S)SCN1C(=O)c2ccc([N+](=O)[O-])cc2S1(=O)=O` , system MCF7 breast?
97.4

Please tell me: growth of CN1CCc2cccc3c2C1Cc1ccc(O)c(O)c1-3 (stereo not given) , system MCF7 breast?
81.6

Please tell me: growth of `COc1ccc(-n2ncc3c4nc(OC)c(S(=O)(=O)c5ccccc5)cc4ccc32)cc1` , system MCF7 breast?
87.9

Please tell me: growth of `Cc1ccc2nc(NC(=O)CSC(=S)N3CCN(Cc4ccccc4)CC3)sc2c1` , system MCF7 breast?
-71.2

* * *

Test system: MDA-MB-435 melanoma
experiment-summary: NCI-60 one-dose screen, 48 h (100 = growth as untreated, 0 = no growth, -100 = all killed)
settings: 10 µM unless noted
About 83,000 compounds went through this panel and 20% of them were active in at least one assay; those are over-represented in the sample as a whole.
property-name: growth (%)
Give the value in % but do not write % after it.

# lookup: growth of `COc1cccc(OC(=O)c2ccccc2)c1OC(=O)c1ccccc1`
-16.4

# lookup: growth of `CCN(CC)CCCNc1ccc(C)c2sc3ccccc3c(=O)c12`
-85.7

# lookup: growth of `N#C/C(=C\c1ccc[nH]1)c1cc2ccccc2[nH]1`
83.2

* * *

Tested on: HCT-15 colon
experiment-summary: NCI-60 one-dose screen, 48 h
settings: 10 µM unless noted
This is part of a sample that, as a whole, favours compounds with a hit. Of some 83,000 tested, about 20% had one in any assay. Calls of active or inactive are those of the source. Rule for the calls: active = growth percent below 10; inactive = the rest.
Answer with one of the outcomes active, inactive

Worked examples follow.
# compound, study-system, discrete-label
measured = [
    ("O=C(NCc1ccc(F)cc1)C1CN(c2ccc(Cl)cc2)N(c2ccc(Cl)cc2)C1=O (stereo not given)", "HCT-15 colon", "inactive"),
    ("NC(=O)c1nc2c([nH]c1=O)CCCC2", "HCT-15 colon", "inactive"),
    ("CON=C1C[C@]2(C[C@@H]3C[C@@H](C/C=C(\\C)C[C@@H](C)/C=C/C=C4\\CO[C@@H]5[C@H](O)C(C)=C[C@@H](C(=O)O3)[C@]45O)O2)O[C@H](/C(C)=C/C(C)C)[C@H]1C", "HCT-15 colon", "inactive"),
    ("Cc1oc2c(c1C(=O)N1CC[C@@H](N)C1)C(=O)c1c(c(O)c3ccccc3c1O)C2=O", "HCT-15 colon", "inactive"),
    ("FC(F)(F)c1cc(CNc2ncc(Br)c(Cl)n2)cc(C(F)(F)F)c1", "HCT-15 colon", "inactive"),
]

Would you mind telling me which call this test gave `COC(=O)c1c2c(c(C)[n+]([O-])c1C)C(=O)C=C(NCc1ccc(Cl)cc1)C2=O` ?
active

Would you mind telling me which call this test gave `Oc1cccc(Nc2nc(-c3ccccn3)cs2)c1` ?
inactive

Would you mind telling me which call this test gave `Cc1ccc(-c2nnc(COc3ccc(-c4nnc(N)s4)cc3)o2)cc1` ?
inactive

Would you mind telling me which call this test gave `O=C1/C(=C/c2ccccc2F)CNC/C1=C\c1ccccc1F` ?
active

Would you mind telling me which call this test gave `Cc1ccc2nc(NC(=O)CSC(=S)N3CCN(C)CC3)sc2c1` ?
inactive

* * *

Test system: MDA-MB-231 breast
experiment-summary: NCI-60 one-dose screen, 48 h
settings: 10 µM unless noted
Compounds without any hit were thinned out: in the full panel of roughly 83,000, 20% have a hit. The source made the active and inactive calls. How the source made its calls: active means growth percent below 10; inactive means the rest.
Answer with one of the outcomes 1 for active, 0 for inactive

Worked examples follow.
# compound, discrete-label
records = [
    ("O=C1c2ccccc2-c2nnc(-c3ccc(Br)cc3)cc21", 0),
    ("CCCCCCCCCCCCSC1=CC(=O)C=CC1=O", 0),
    ("O=c1c2c(=NCCN3CCCC3)cc3c(=O)n(CCCN4CCOCC4)c(=O)c4c(-c5ccc(CN6CCCC6)cc5)cc(c(O)n1CCCN1CCOCC1)c2c4-3", 1),
    ("Brc1ccc(SCN(CSc2ccc(Br)cc2)Cc2ccccc2)cc1", 0),
    ("COc1nc2c(cc1S(=O)(=O)c1ccccc1)CCc1c-2cnn1-c1cccc(Cl)c1", 0),
]

Would you mind telling me which call this test gave COc1ccc(/C=N/OCC(O)CNCc2ccccc2)cc1OC1CCCC1 (stereo not given) ?
0

Would you mind telling me which call this test gave `O=c1nc(NO)[nH]c(=O)n1Cc1ccccc1` ?
0

Would you mind telling me which call this test gave `COc1ccc(-n2c(SCc3cc(OC)c(OC)c(OC)c3)nc3ccc(C)cc3c2=O)c(OC)c1` ?
0

Would you mind telling me which call this test gave `CN1CCn2c(c(Sc3ccc(C(=O)NO)cc3)c3ccccc32)C1=O` ?
1

Would you mind telling me which call this test gave COC(=O)C1C2CC3c4[nH]c5cc(OC)ccc5c4CCN3CC2CC(OC2CCCCO2)C1OC (stereo not given) ?
0

Would you mind telling me which call this test gave `Cc1ccc2nc(NC(=O)CSC(=S)N3CCN(C)CC3)sc2c1` ?
0

Would you mind telling me which call this test gave `O=C1/C(=C/c2ccc(Oc3ccccc3)cc2)N=C(c2ccccc2)N1CCc1cccs1` ?
0

Would you mind telling me which call this test gave `COc1cc2nc(SCc3cc(OC)c(OC)c(OC)c3)n(-c3ccccc3OC)c(=O)c2cc1OC` ?
0

Would you mind telling me which call this test gave `Cc1ccc2c(c1)c(Sc1ccc(C(=O)NO)cc1)c1n2CN(C)CC1` ?
1

Would you mind telling me which call this test gave `CS(=O)(=O)Nc1cccc(C(=O)NCc2ccc(N3CCOCC3)cc2)c1` ?
0

Would you mind telling me which call this test gave O=[N+]([O-])c1cc2c(cc1Br)C1C(C3C2C(Cl)(Cl)C(Cl)=C(Cl)C3(Cl)Cl)C(Cl)(Cl)C(Cl)=C(Cl)C1(Cl)Cl (stereo not given) ?
0

Would you mind telling me which call this test gave `O=c1[nH]c(=S)[nH]c(=O)n1Cc1cccc2ccccc12` ?
0

Would you mind telling me which call this test gave `COc1cc(CNCCN2C(=O)c3ccc4c5c(ccc(c35)C2=O)C(=O)N(CCNCc2cc(OC)c(OC)c(OC)c2)C4=O)cc(OC)c1OC` ?
1

Would you mind telling me which call this test gave `COc1cc(C(=O)/C=C/c2c(-c3cccs3)nc3sccn23)cc(OC)c1OC` ?
1

Would you mind telling me which call this test gave `CN(C)c1ccc(/C=C(\C#N)c2cc3ccccc3n2C)cc1` ?
0

Ref: PubChem BioAssay (NCI)
